Documented Ki across a set of binders
# TEST TARGET: T1, human plasma kallikrein (human, UniProt P03952 20-390; P03952 391-638)
# T1 construct: two disulfide-linked chains; also called pKal; human pKal
# T1 sequence (P03952 20-390, chain 1 of 2): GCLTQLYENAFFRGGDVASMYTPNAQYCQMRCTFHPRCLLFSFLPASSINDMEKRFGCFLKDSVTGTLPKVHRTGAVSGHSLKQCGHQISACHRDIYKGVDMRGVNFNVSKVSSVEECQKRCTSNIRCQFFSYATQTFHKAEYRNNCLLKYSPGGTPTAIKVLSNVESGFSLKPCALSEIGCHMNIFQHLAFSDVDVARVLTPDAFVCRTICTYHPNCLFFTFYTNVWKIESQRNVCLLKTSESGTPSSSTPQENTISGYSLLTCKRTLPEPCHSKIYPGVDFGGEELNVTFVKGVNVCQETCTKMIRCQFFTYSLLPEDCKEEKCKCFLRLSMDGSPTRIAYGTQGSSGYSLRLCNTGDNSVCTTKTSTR
# T1 sequence (P03952 391-638, chain 2 of 2): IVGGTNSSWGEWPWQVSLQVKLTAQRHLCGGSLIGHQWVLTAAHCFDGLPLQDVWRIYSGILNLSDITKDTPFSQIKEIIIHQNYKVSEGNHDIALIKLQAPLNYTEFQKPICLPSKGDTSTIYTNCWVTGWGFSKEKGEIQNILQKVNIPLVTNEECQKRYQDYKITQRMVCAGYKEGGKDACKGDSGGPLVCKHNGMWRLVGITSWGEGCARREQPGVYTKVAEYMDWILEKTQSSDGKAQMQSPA
# ASSAY SUMMARY: Ki,app, inhibition of human pKal enzyme activity
Numeric only. Scale: pM

- BINDER: "M209-C11 (Fab, V domains shown, Tested as Fab; printed HC runs into CH1; amber q written Q) VH: EVQLLESGGGLVQPGGSLRLSCAASGFTFSHYLMTWVRQAPGKGLEWVSYISPSGGHTIYADSVKGRFTISRDNSKNTLYLQMNSLRAEDTAVYYCAMVGQGIRGRSRTSYFAQWGQGTLVTVSS VL: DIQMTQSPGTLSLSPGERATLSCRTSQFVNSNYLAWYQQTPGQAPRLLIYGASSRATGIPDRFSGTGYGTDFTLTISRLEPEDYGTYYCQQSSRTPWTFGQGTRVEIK"
  REPORTED: 140
- BINDER: "M210-G04 (Fab, V domains shown, Tested as Fab; printed HC runs into CH1; amber q written Q) VH: EVQLLESGGGLVQPGGSLRLSCAASGFTFSHYLMTWVRQAPGKGLEWVSYISPSGGHTIYADSVKGRFTISRDNSKNTLYLQMNSLRAEDTAVYYCARVATGIVARSRTRYFDQWGQGTLVTVSS VL: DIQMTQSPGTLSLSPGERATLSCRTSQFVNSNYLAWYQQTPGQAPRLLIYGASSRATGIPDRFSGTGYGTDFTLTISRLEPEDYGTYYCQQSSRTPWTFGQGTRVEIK"
  REPORTED: 300

The record that follows has no Ki shown yet.
Query: So what's the measured Ki for this one? M209-F04 (Fab, V domains shown, Tested as Fab; printed HC runs into CH1; amber q written Q; WSQGTL as printed) VH: EVQLLESGGGLVQPGGSLRLSCAASGFTFSHYLMTWVRQAPGKGLEWVSYISPSGGHTIYADSVKGRFTISRDNSKNTLYLQMNSLRAEDTAVYYCARVARGIAARSRTSYLDQWSQGTLVTVSS VL: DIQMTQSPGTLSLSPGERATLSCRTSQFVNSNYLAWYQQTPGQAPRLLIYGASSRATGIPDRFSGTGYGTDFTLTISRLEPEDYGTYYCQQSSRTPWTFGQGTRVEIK
Reply: 90
